Consider the following molecules; for each one, report its growth inhibition.
# assayDetails: NCI Yeast Anticancer Drug Screen. Data for the mlh1 rad18 strain (AID 175)
# conditionInfo: S. cerevisiae mlh1 rad18 strain growth inhibition; at 50.0 µM (retest, dose inferred, filed as 5.0); hits give high values
# Description: Growth inhibition of yeast strains with defined genetic alterations is measured as a screen for potential anti-cancer activity. Selected strains with alterations in DNA damage repair or cell cycle control were exposed to compounds and growth inhibition was measured relative to vehicle treated controls. The strain used in this assay is mlh1 rad18
About 79,000 compounds went through this panel and 15% of them were active in at least one assay; those are over-represented in the sample as a whole. Activity calls are given as the source filed them. No stated cut-off is given here; in the data, active means growth inhibition above about 70%; inactive means the rest.

Provide each entry's growth inhibition from the list below.
1. O=C(Cc1csc2[n+]1C(=O)/C(=C/c1cccc([N+](=O)[O-])c1)S2)Nc1ccccc1
2. COc1ccc(CCBr)cc1
3. CC1(c2ccccc2)OC1C(=O)N(c1ccccc1)c1ccccc1 (stereo unspecified)
4. O=C(O)Cc1cc(I)c(Oc2ccc(O)c(I)c2)c(I)c1

1: -9% (inactive); 2: -41% (inactive); 3: 97% (active); 4: 97% (active)
